Test system: MV4-11
Assay: Antiproliferative activity against human MV4-11 cells harboring homozygous FLT3-ITD mutant assessed as inhibition of cell growth incubated for 72 hrs by resazurin dye based fluorescence analysis
Type: functional
Consider the following molecules; for each one, report its GI50.
Unit nM implied. Number only.

Input: Any idea what GI50 was measured for O=C(Nc1ccc(Br)cc1)Nc1nnc(Sc2ncnc3oc(-c4ccccc4)cc23)s1 ?
Output: 1190

Input: Please do the same for O=C(Nc1nnc(Sc2ncnc3oc(-c4ccccc4)c(-c4ccccc4)c23)s1)Nc1ccccc1Br as well.
Output: 290

Input: Next up: O=C(Nc1ccccc1)Nc1nnc(Sc2ncnc3oc(-c4ccccc4)c(-c4ccccc4)c23)s1
Output: 74

Input: Next entry: O=C(Nc1cccc(Cl)c1)Nc1nnc(Sc2ncnc3oc(-c4ccccc4)cc23)s1
Output: 345

Input: Would you kindly repeat that for COc1ccc(NC(=O)Nc2nnc(Sc3ncnc4oc(-c5ccccc5)cc34)s2)cc1 ?
Output: 105

Input: Also, O=C(Nc1ccc(Br)cc1)Nc1nnc(Sc2ncnc3oc(-c4ccccc4)c(-c4ccccc4)c23)s1 please.
Output: 396

Input: Repeat with O=C(Nc1ccc(Cl)c(Cl)c1)Nc1nnc(Sc2ncnc3oc(-c4ccccc4)c(-c4ccccc4)c23)s1
Output: 6190

Input: Next record, please: Cc1cccc(NC(=O)Nc2nnc(Sc3ncnc4oc(-c5ccccc5)c(-c5ccccc5)c34)s2)c1
Output: 115

Input: What about O=C(Nc1ccccc1)Nc1nnc(Sc2ncnc3oc(-c4ccccc4)cc23)s1 ?
Output: 165

Input: Likewise for Cc1ccc(NC(=O)Nc2nnc(Sc3ncnc4oc(-c5ccccc5)cc34)s2)cc1Cl ?
Output: 430

Input: Same read-out for O=C(Nc1ccc(Cl)cc1)Nc1nnc(Sc2ncnc3oc(-c4ccccc4)cc23)s1 ?
Output: 430

###

Target: Receptor-type tyrosine-protein kinase FLT3 (Homo sapiens, UniProt P36888, ITD)
Sequence (P36888 whole entry, looked up, change not shown): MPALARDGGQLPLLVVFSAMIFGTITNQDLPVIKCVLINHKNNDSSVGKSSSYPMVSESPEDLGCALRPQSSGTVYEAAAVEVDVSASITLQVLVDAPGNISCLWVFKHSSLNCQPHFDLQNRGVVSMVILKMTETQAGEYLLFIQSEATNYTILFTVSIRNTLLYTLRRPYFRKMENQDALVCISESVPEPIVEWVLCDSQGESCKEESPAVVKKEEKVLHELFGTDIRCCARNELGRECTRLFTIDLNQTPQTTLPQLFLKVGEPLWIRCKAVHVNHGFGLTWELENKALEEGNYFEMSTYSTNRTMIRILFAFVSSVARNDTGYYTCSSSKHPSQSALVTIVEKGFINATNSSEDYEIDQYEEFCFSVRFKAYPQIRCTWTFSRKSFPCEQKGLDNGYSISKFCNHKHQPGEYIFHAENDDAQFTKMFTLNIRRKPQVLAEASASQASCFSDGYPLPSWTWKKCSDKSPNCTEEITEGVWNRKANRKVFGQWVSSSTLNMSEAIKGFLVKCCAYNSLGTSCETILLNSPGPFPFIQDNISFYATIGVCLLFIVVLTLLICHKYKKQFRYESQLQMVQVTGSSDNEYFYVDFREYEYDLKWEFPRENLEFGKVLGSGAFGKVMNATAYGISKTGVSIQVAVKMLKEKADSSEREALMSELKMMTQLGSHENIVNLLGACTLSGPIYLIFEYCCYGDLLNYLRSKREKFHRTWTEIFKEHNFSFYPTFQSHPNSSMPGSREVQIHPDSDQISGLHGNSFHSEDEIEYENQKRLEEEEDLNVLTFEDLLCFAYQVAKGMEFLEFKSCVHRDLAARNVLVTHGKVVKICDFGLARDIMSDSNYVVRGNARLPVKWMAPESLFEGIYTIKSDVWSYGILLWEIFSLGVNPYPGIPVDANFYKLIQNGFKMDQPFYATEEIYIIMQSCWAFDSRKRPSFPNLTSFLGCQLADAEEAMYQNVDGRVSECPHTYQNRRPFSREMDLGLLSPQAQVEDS
Experiment: biochemical
PROPERTY LABEL: IC50 (nM)
All answers are understood in nM, so give the number only.

Input: Any idea what its IC50 is? The molecule is O=C(Nc1ccc(Cl)cc1)Nc1nnc(Sc2ncnc3oc(-c4ccccc4)cc23)s1
Output: 9

Input: Same again, this time with O=C(Nc1ccccc1)Nc1nnc(Sc2ncnc3oc(-c4ccccc4)c(-c4ccccc4)c23)s1
Output: 4

Input: How about O=C(Nc1ccc(Br)cc1)Nc1nnc(Sc2ncnc3oc(-c4ccccc4)cc23)s1 ?
Output: 3
